B1: ATE1 (parent)
chain: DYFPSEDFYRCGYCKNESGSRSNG

Variants of: B1
protocolNotes: protein stability index of a GFP-peptide fusion (GPS, HEK-293T) (PSI 1-6); higher = more stable;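 further: lentivirally expressed fusions sorted by FACS into six bins by GFP to DsRed ratio, PSI derived from sequencing read proportions per bin multiplied by bin number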
statedConditions: c terminus: a fixed tail appended
protein stability index of 2 or higher: y. Under 2: n.

Example entries begin here.
primarySequence: DYFPSEDFYRCGYCKNESGSRPNG
className: y

primarySequence: QYFPSEDFYRCGYCKNESGSRSNG
className: n

primarySequence: DYFPSEDFYRCGQCKNESGSRSNG
className: y

primarySequence: LYFPSEDFYRCGYCKNESGSRSNG
className: y

primarySequence: DYLPSEDFYRCGYCKNESGSRSNG
className: n

primarySequence: DYFPYEDFYRCGYCKNESGSRSNG
className: y

primarySequence: DYFPSEDFYRCGYCINESGSRSNG
className: y

primarySequence: DYFPSEDFYRCGYQKNESGSRSNG
className: y

Next up:
Q. Decide: protein stability index of DPFPSEDFYRCGYCKNESGSRSNG >= 2?
A. y
